Biological target: human recombinant AChE (Homo sapiens)
Sequence (P22303 32-614): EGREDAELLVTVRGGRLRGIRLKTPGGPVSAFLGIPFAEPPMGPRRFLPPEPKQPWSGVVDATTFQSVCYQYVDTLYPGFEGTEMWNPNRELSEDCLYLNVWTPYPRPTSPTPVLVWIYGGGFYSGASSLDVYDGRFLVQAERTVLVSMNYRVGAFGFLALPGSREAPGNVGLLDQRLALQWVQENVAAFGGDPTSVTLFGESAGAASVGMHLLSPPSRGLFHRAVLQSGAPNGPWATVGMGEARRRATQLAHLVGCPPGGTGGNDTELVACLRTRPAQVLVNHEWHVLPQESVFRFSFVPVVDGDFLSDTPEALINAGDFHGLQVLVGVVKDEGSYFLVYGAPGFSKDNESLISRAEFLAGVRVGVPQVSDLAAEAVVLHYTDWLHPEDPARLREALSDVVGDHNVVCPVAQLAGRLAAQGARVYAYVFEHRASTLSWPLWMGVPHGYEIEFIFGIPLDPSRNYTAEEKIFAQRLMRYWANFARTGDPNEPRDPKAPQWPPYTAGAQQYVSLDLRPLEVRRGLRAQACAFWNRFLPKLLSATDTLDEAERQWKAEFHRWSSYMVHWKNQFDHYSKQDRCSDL
Assay: biochemical
Settings: read-out: hAChE IC50
pIC50: −log10 of the molar value.
Reported pIC50 values are given for each entry in this list.
reported endpoint: pIC50

1) O=C1Nc2ccccc2C1=NNc1ccc(OCc2ccccc2)cc1 [Compound 8]; 5.41
2) O=C1Nc2ccccc2C1=NNc1cccc(OCc2ccccc2)c1 [Compound 6]; 5.38

====

Target: human recombinant AChE (Homo sapiens)
Construct: purchased Sigma Aldrich
Test: biochemical
Settings: read-out: hAChE % Inhib. at 10 μM
reported endpoint: inhibition at 10 µM (%)

1) CN1C(=O)C(=NNc2ccc(OCc3ccccc3)cc2)c2ccccc21; 48
2) COc1ccc2c(c1)C(=O)C(=O)N2CCc1ccccc1; 47
3) CN1C(=O)C(=NNc2cccc(OCc3ccccc3)c2)c2ccccc21; 48
4) O=C1Nc2ccccc2C1=NNc1cccc2ccccc12; 40
5) CC(C)c1ccc(NN=C2C(=O)N(Cc3ccccc3)c3ccc(O)cc32)cc1; 31
6) COc1ccc2c(c1)C(=O)C(=O)N2CN1CCOCC1; 26
7) COc1ccc2[nH]cc(C=NNc3ccc4ccccc4n3)c2c1; 38
8) COc1ccc2c(c1)C(=NNc1ccc(C(C)C)cc1)C(=O)N2CCN(C)C; 23
9) Clc1ccc(NN=Cc2c[nH]c3ccccc23)cc1; 41
10) O=C1Nc2ccccc2C1=NNc1ccccc1 [Compound 5, isatin 3-phenylhydrazone]; 37

====

// reported inhibition at 10 µM for each item listed
Biological target: human recombinant monoamine oxidase A (Homo sapiens, UniProt P21397)
Construct: purchased Sigma Aldrich; host or cells: baculovirus infected insect cells (microsomes)
Sequence (P21397 1-527): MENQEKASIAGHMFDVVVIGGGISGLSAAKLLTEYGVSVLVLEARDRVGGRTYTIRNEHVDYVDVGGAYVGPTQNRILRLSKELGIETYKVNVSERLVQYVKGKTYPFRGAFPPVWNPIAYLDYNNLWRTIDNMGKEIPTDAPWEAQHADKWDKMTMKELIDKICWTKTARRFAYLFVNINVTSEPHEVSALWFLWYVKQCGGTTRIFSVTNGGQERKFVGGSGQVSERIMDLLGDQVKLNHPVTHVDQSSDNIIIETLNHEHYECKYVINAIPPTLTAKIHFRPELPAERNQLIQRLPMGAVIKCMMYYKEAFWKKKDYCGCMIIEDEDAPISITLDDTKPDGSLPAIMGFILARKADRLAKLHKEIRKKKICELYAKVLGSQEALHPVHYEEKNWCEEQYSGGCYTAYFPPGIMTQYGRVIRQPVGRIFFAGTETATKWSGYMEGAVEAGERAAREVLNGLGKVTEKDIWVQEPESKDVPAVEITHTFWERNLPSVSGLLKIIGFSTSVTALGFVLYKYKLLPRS
Experiment: Inhibition of monoamine oxidase A (kynuramine)
Assay type: biochemical
Settings: read-out: hMAO A % Inhib. at 10 μM
reported endpoint: inhibition at 10 µM

1. CN1C(=O)C(=NNc2ccc(OCc3ccccc3)cc2)c2ccccc21; 15%
2. CN1C(=O)C(=NNc2cccc(OCc3ccccc3)c2)c2ccccc21; 29%
3. COc1ccc2c(c1)C(=O)C(=O)N2CCc1ccccc1; 20%
4. COc1ccc2c(c1)C(=O)C(=O)N2CN1CCOCC1; 7%

Reference source for all entries: paper PMC7731220
